Origin of measurements: patent US20240043427A1

Test system: CD73 (Homo sapiens (Human))
Sequence (P21589 27-574): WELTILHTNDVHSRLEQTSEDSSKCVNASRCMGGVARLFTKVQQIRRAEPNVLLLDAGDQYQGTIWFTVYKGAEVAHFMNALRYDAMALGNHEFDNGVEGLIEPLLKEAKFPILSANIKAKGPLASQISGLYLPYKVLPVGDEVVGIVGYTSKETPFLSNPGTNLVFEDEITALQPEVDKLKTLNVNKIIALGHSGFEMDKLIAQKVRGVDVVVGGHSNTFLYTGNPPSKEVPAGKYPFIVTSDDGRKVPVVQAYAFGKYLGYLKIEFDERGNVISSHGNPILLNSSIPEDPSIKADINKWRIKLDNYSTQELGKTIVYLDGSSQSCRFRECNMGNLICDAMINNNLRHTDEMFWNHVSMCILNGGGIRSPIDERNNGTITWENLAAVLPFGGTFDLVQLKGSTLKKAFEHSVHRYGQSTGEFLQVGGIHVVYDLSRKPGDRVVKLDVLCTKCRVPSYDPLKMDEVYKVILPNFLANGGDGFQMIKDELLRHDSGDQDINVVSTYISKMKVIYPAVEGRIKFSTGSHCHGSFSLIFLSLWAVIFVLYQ
Assay type: biochemical
Cond: 1 mM NaH2PO4 in enzyme buffer, CD73 0.3 nM, AMP 15 uM
Exercise: state measured pIC50 for each of the molecules provided.
Reminder that pIC50 is minus the log10 of a molar concentration.

[Q] Could you share which pIC50 value was measured for O=c1[nH]cc(-c2cc([C@H]3C[C@@H]3c3ccc4cnn(CC(F)(F)F)c4n3)c3nccn3n2)c(=O)[nH]1 (racemic) ?
[A] 8.94

[Q] Could you share which pIC50 value was measured for O=c1[nH]cc(-c2cc([C@H]3C[C@@H]3c3cnn(C(F)F)c3)c3ncc(F)n3n2)c(=O)[nH]1 [Example 371] ?
[A] 8.31

[Q] Could you share which pIC50 value was measured for "O=c1[nH]cc(-c2cc([C@H]3C[C@@H]3c3ccc4nc(C(F)(F)F)sc4c3)c3nccn3n2)c(=O)[nH]1" ?
[A] 9.01

[Q] Could you share which pIC50 value was measured for O=c1[nH]cc(-c2cc([C@H]3C[C@@H]3c3ccc4nc(C(F)F)sc4c3)c3nccn3n2)c(=O)[nH]1 (racemic) ?
[A] 9.20

[Q] Could you share which pIC50 value was measured for C#CC1(C)CCN(c2cc(-c3c[nH]c(=O)[nH]c3=O)nn3ccnc23)C1 (stereo not shown) ?
[A] 8.88

[Q] Could you share which pIC50 value was measured for "O=c1[nH]cc(-c2cc([C@H]3C[C@@H]3c3cc(Cl)c4cnn(CC(F)(F)F)c4c3)c3nccn3n2)c(=O)[nH]1" ?
[A] 9.34

---

Exercise: state measured log10(IC50) for each of the molecules provided.
Test system: CD73 (Homo sapiens (Human))
Assay type: biochemical
Cond: 1 mM NaH2PO4 in enzyme buffer, CD73 0.3 nM, AMP 15 uM
# log10 transformed; quantity=IC50; unit=nM

[Q] Could you share which log10(IC50) value was measured for O=c1[nH]cc(-c2cc(N3CC(C4CC4)C3)c3nccn3n2)c(=O)[nH]1 [Example 404] ?
[A] 1.36

[Q] Could you share which log10(IC50) value was measured for O=c1[nH]cc(-c2cc([C@H]3C[C@@H]3c3cc(C(F)(F)F)c4ncccc4c3)c3ncc(F)n3n2)c(=O)[nH]1 [Example 134] ?
[A] 0.07

[Q] Could you share which log10(IC50) value was measured for O=c1[nH]cc(-c2cc([C@H]3C[C@@H]3c3ccc4cncc(OCC(F)(F)F)c4c3)c3nccn3n2)c(=O)[nH]1 [Example 710] ?
[A] 0.16

[Q] Could you share which log10(IC50) value was measured for O=c1[nH]cc(-c2cc(N3CC(Oc4ccc(C(F)(F)F)cn4)(C(F)(F)F)C3)c3nccn3n2)c(=O)[nH]1 [Example 434] ?
[A] 0.44

[Q] Could you share which log10(IC50) value was measured for CC(C)[C@@H]1CCN(c2cc(-c3c[nH]c(=O)[nH]c3=O)nn3ccnc23)C1 [Example 174] ?
[A] 1.84

[Q] Could you share which log10(IC50) value was measured for C[C@@H]1CN(c2cc(-c3c[nH]c(=O)[nH]c3=O)nn3c(Cl)cnc23)CC1(F)F [Example 521] ?
[A] 1.52

[Q] Could you share which log10(IC50) value was measured for O=c1[nH]cc(-c2cc(N3CC(Cc4ccc(F)cc4F)C3)c3nccn3n2)c(=O)[nH]1 [Example 450] ?
[A] 2.36

[Q] Could you share which log10(IC50) value was measured for O=c1[nH]cc(-c2cc(N3CC(F)(C(F)(F)F)C3)c3ncc(Cl)n3n2)c(=O)[nH]1 [Example 455] ?
[A] 1.17

[Q] Could you share which log10(IC50) value was measured for N#Cc1ccc([C@H]2C[C@@H]2c2cc(-c3c[nH]c(=O)[nH]c3=O)nn3c(F)cnc23)c(F)c1 [Example 310] ?
[A] -0.20

[Q] Could you share which log10(IC50) value was measured for O=c1[nH]cc(-c2cc([C@H]3C[C@@H]3c3ccc4cnn(CC5CC5)c4c3)c3nccn3n2)c(=O)[nH]1 (racemic) [Example 130] ?
[A] 0.00

[Q] Could you share which log10(IC50) value was measured for O=c1[nH]cc(-c2cc([C@H]3C[C@@H]3c3ccc4cnn(CC(F)(F)F)c4c3)c3ncnn3n2)c(=O)[nH]1 [Example 431] ?
[A] -0.82
